target system: human TGR5 (Homo sapiens)
Construct: expressed in transfected cells; host or cells: HEK293
protocol text: Cell-based TGR5 assay (cAMP generation, HTRF)
recorded conditions: HEK293 cells stably transfected with human TGR5; cAMP by HTRF; 30 minutes at 37° C.; read-out: pEC50 Human TGR5 (converted)
metric name: EC50

O=C(NCCCCc1cc(Cl)c(COC2(c3cnccc3-c3ccccc3OC3COC3)CC2)cc1Cl)NC[C@H](O)[C@@H](O)[C@H](O)[C@H](O)CO [Compound I-193] | < 100 nM
CCC(=O)N(CCCCc1cc(Cl)c(COC2(c3cnccc3-c3ccccc3OC3CC3)CC2)cc1Cl)C[C@H](O)[C@@H](O)[C@H](O)[C@H](O)CO [Compound I-73] | < 100 nM
CN(C[C@H](O)[C@@H](O)[C@H](O)[C@H](O)CO)C(=O)NCCCCc1cc(Cl)c(CNC2(c3cnccc3-c3ccccc3OC3COC3)CC2)cc1Cl [Compound I-175] | 126 to 1000 nM

Turning now to a further compound:
Query: Dear colleague, I am looking for the recorded EC50 of the following compound: CN(CCCCCNC(=O)N[C@@H](CO)[C@@H](O)[C@H](O)[C@H](O)CO)S(=O)(=O)c1ccc(Cl)c(COC2(c3cnccc3-c3ccccc3OC3CC3)CC2)c1 (stereo in doubt) [Compound I-405]
Response: < 100 nM

###

Answer each item with its documented EC50.
target system: human TGR5 (Homo sapiens, UniProt Q8TDU6)
Construct: expressed in transfected cells; host or cells: HEK293
protocol text: Cell-based TGR5 assay (cAMP generation, HTRF)
recorded conditions: HEK293 cells stably transfected with human TGR5; cAMP by HTRF; 30 minutes at 37° C.; read-out: pEC50 Human TGR5 (converted)

CC(CCCC(=O)N1CCC(NC(=O)NC[C@H](O)[C@@H](O)[C@H](O)[C@H](O)CO)CC1)c1ccc(Cl)c(CNC2(c3cnccc3-c3ccccc3OC3CC3)CC2)c1 (stereo partly drawn) | < 100 nM

Field: EC50. Fill in for each record below.
1. CC(CCCC(=O)N(CCOCCO)C[C@H](O)[C@@H](O)[C@H](O)[C@H](O)CO)c1ccc(Cl)c(CNC2(c3cnccc3-c3ccccc3OC3CC3)CC2)c1 (stereo partly drawn)
2. COc1c(F)cc(CNC2(c3cnccc3-c3ccccc3OC3CC3)CC2)c(C)c1Cl

Response:
1. < 100 nM
2. 126 to 1000 nM

Answer for every listed entry: what is its EC50? The entries follow.
1. CN(C)C(=O)CCN(C[C@H](O)[C@@H](O)[C@H](O)[C@H](O)CO)C(=O)CCCSc1ccc(Cl)c(COC2(c3cnccc3-c3ccccc3OC3CC3)CC2)c1
2. O=C([C@@H](O)[C@@H](O)[C@H](O)[C@@H](O)CO)N(CCCCc1cc(Cl)c(COC2(c3cnccc3-c3ccccc3OC3CC3)CC2)cc1Cl)CC1CC1
3. CCN(C[C@H](O)[C@@H](O)[C@H](O)[C@H](O)CO)C(=O)NCCCCc1cc(Cl)c(COC2(c3cnccc3-c3ccccc3OC3CC3)CC2)cc1C
4. CN(CCCCNC(=O)N[C@H](CO)[C@@H](O)[C@H](O)[C@H](O)CO)S(=O)(=O)c1ccc(Cl)c(COC2(c3cnccc3-c3ccccc3OC3CC3)CC2)c1
5. CCNC(=O)[C@H](CCCCNS(=O)(=O)c1ccc(Cl)c(COC2(c3cnccc3-c3ccccc3OC3CC3)CC2)c1)NC(=O)NC[C@H](O)[C@@H](O)[C@H](O)[C@H](O)CO
6. O=C([C@@H](O)[C@@H](O)[C@H](O)[C@@H](O)CO)N(CCCCSc1ccc(Cl)c(CNC2(c3cnccc3-c3ccccc3OC3CC3)CC2)c1)C1CCOCC1
7. C[C@@H](CCCCNC(=O)NC[C@H](O)[C@@H](O)[C@H](O)[C@H](O)CO)c1ccc(Cl)c(COC2(c3cnccc3-c3ccccc3OC3CC3)CC2)c1 (single isomer, unassigned)

Response:
1. 126 to 1000 nM
2. < 100 nM
3. < 100 nM
4. < 100 nM
5. 126 to 1000 nM
6. 126 to 1000 nM
7. < 100 nM

###

target system: human TGR5 (Homo sapiens, UniProt Q8TDU6)
Construct: expressed in transfected cells; host or cells: HEK293
Sequence (Q8TDU6 1-330): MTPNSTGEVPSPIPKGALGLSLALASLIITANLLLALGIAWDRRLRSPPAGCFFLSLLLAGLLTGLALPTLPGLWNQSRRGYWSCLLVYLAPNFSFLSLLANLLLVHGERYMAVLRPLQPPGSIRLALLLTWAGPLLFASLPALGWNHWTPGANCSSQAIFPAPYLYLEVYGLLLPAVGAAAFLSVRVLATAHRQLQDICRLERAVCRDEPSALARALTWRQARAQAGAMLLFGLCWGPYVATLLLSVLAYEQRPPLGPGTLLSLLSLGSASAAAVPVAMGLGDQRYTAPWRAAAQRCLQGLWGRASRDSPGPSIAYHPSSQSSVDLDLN
protocol text: Cell-based TGR5 assay (cAMP generation, HTRF)
recorded conditions: HEK293 cells stably transfected with human TGR5; cAMP by HTRF; 30 minutes at 37° C.; read-out: pEC50 Human TGR5 (converted)
metric name: EC50

Worked examples follow.
CC(C)N(CCCCNC(=O)NC[C@H](O)[C@@H](O)[C@H](O)[C@H](O)CO)S(=O)(=O)c1cc(COC2(c3cnccc3-c3ccccc3OC3CC3)CC2)c(Cl)cc1F | < 100 nM
Cc1cc(COC2(c3cnccc3-c3ccccc3OC3CC3)CC2)c(Cl)cc1CCCCNC(=O)[C@@H](O)[C@@H](O)[C@H](O)[C@@H](O)CN1CCOCC1 (stereo in doubt) | < 100 nM
C[C@@H](CCCCN)c1ccc(Cl)c(CNC2(c3cnccc3-c3ccccc3OC3CC3)CC2)c1 (single isomer, unassigned) | 126 to 1000 nM
O=C(CCCSc1ccc(Cl)c(COC2(c3cnccc3-c3ccccc3OC3CC3)CC2)c1)N(Cc1ccccc1)C[C@H](O)[C@@H](O)[C@H](O)[C@H](O)CO | 126 to 1000 nM
O=C(CN1CCN(C(=O)CCCCc2cc(Cl)c(COC3(c4cnccc4-c4ccccc4OC4CC4)CC3)cc2Cl)CC1)NC[C@H](O)[C@@H](O)[C@H](O)[C@H](O)CO | < 100 nM
Cc1cc(COC2(c3cnccc3-c3ccccc3OC3CC3)CC2)c(Cl)cc1CCCCNC(=O)N[C@H](CCCCN)C(=O)O | 126 to 1000 nM

Now for the compound whose EC50 we want.
Query: Find the recorded EC50 belonging to `Cc1ccc(SCCCCN(CCOCCO)C(=O)[C@@H](O)[C@@H](O)[C@H](O)[C@@H](O)CO)cc1COC1(c2cnccc2-c2ccccc2OC2CC2)CC1` and report it.
Response: 126 to 1000 nM

###

target system: human TGR5 (Homo sapiens)
Construct: expressed in transfected cells; host or cells: HEK293
protocol text: Cell-based TGR5 assay (cAMP generation, HTRF)
recorded conditions: HEK293 cells stably transfected with human TGR5; cAMP by HTRF; 30 minutes at 37° C.; read-out: pEC50 Human TGR5 (converted)
For each record, write down the corresponding EC50.

O=S(=O)(NC[C@H](O)[C@@H](O)[C@H](O)[C@H](O)CO)c1ccc(Cl)c(COC2(c3cnccc3-c3ccccc3OC3CC3)CC2)c1 | 126 to 1000 nM

Hi! Can you tell me EC50 for each of these molecules?
1. CC(=O)NCCN(CCCSc1ccc(Cl)c(CNC2(c3cnccc3-c3ccccc3OC3CC3)CC2)c1)C(=O)[C@@H](O)[C@@H](O)[C@H](O)[C@@H](O)CO
2. O=C(NC[C@H](O)[C@@H](O)[C@H](O)[C@H](O)CO)c1ccc(CCc2ccc(Cl)c(COC3(c4cnccc4-c4ccccc4OC4CC4)CC3)c2)cc1
3. CC(CO)Oc1ccccc1-c1ccncc1C1(NCc2cc(Cl)ccc2Cl)CC1 (stereo not shown)
4. O=C(CCC1CN(S(=O)(=O)c2ccc(Cl)c(COC3(c4cnccc4-c4ccccc4OC4CC4)CC3)c2)C1)NC[C@H](O)[C@@H](O)[C@H](O)[C@H](O)CO
5. CC(C)(CC(=O)O)CC(=O)N(CCCCc1cc(Cl)c(CNC2(c3cnccc3-c3ccccc3OC3CC3)CC2)cc1Cl)C[C@H](O)[C@@H](O)[C@H](O)[C@H](O)CO
6. Clc1ccc(CNC2(c3cnccc3-c3ccccc3OC3CC3)CC2)c(Cl)c1

Response:
126 to 1000 nM
126 to 1000 nM
126 to 1000 nM
< 100 nM
1260 to 10000 nM
126 to 1000 nM

###

target system: human TGR5 (Homo sapiens, UniProt Q8TDU6)
Construct: expressed in transfected cells; host or cells: HEK293
Sequence (Q8TDU6 1-330): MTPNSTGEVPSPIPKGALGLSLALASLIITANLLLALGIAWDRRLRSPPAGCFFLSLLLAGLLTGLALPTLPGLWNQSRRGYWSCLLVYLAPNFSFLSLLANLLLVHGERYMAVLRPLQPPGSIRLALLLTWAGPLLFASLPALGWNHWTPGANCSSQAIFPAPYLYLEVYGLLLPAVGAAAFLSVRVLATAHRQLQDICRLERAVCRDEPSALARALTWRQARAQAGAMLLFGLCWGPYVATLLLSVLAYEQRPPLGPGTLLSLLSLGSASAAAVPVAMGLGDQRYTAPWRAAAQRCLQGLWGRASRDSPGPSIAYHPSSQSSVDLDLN
protocol text: Cell-based TGR5 assay (cAMP generation, HTRF)
recorded conditions: HEK293 cells stably transfected with human TGR5; cAMP by HTRF; 30 minutes at 37° C.; read-out: pEC50 Human TGR5 (converted)
metric name: EC50

Solved entries:
O=C(NCCCSc1ccc(Cl)c(COC2(c3cnccc3-c3ccccc3OC3CC3)CC2)c1)NC[C@H](O)[C@@H](O)[C@H](O)[C@H](O)CO | < 100 nM
COc1ccccc1-c1ccncc1C1(OCc2cc(Cl)ccc2Cl)CC1 | < 100 nM
CC(CCCCC(=O)O)c1ccc(Cl)c(CNC2(c3cnccc3-c3ccccc3OC3CC3)CC2)c1 (stereo not drawn) | < 100 nM
Cc1ccc(C(CO)CCCNC(=O)[C@@H](O)[C@@H](O)[C@H](O)[C@@H](O)CO)cc1CNC1(c2cnccc2-c2ccccc2OC2CC2)CC1 (stereo partly drawn) | < 100 nM

State recorded EC50 for all listed molecules.
1. CN(C[C@H](O)[C@@H](O)[C@H](O)[C@H](O)CO)C(=O)CCCCc1cc(Cl)c(CNC2(c3cnccc3-c3ccccc3OC3COC3)CC2)cc1Cl
2. Cc1ccc(C(C)CCCC(=O)N(CC(N)=O)C[C@H](O)[C@@H](O)[C@H](O)[C@H](O)CO)cc1CNC1(c2cnccc2-c2ccccc2OC2CC2)CC1 (stereo partly drawn)
3. CNC(=O)CN(C[C@H](O)[C@@H](O)[C@H](O)[C@H](O)CO)C(=O)CCCCc1cc(Cl)c(COC2(c3cnccc3-c3ccccc3OC3CC3)CC2)cc1Cl (stereo in doubt)
4. CN(C[C@H](O)[C@@H](O)[C@H](O)[C@H](O)CO)C(=O)CCN(CCC(=O)N(C)C[C@H](O)[C@@H](O)[C@H](O)[C@H](O)CO)C(=O)CCCCc1cc(Cl)c(COC2(c3cnccc3-c3ccccc3OC3CC3)CC2)cc1Cl
5. O=C([C@@H](O)[C@@H](O)[C@H](O)[C@@H](O)CO)N(CCCCCO)CCCCCSc1ccc(Cl)c(CNC2(c3cnccc3-c3ccccc3OC3CC3)CC2)c1
6. Cc1ccc(SCCCN(C(=O)[C@@H](O)[C@@H](O)[C@H](O)[C@@H](O)CO)C2CCOCC2)cc1CNC1(c2cnccc2-c2ccccc2OC2CC2)CC1
7. COCCCN(CCCCc1cc(Cl)c(COC2(c3cnccc3-c3ccccc3OC3CC3)CC2)cc1Cl)C(=O)[C@@H](O)[C@@H](O)[C@H](O)[C@@H](O)CO

Response:
["< 100 nM", "< 100 nM", "< 100 nM", "126 to 1000 nM", "< 100 nM", "1260 to 10000 nM", "< 100 nM"]

Query: Return reported EC50; argument: CC(CCCN(C(=O)[C@@H](O)[C@@H](O)[C@H](O)[C@@H](O)CO)C1CCS(=O)(=O)CC1)c1ccc(Cl)c(CNC2(c3cnccc3-c3ccccc3OC3CC3)CC2)c1 (stereo partly drawn)
Response: < 100 nM
